The origin of these recorded values is PubChem BioAssay (EPA / NIEHS).

protocol.text: TOX21_p53_BLA_p2_viability: Viability Assessment in the Tox21 HCT-116 p53 Agonism Beta-lactamase Assay, Phase 2 (AID 2283591);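 also: compound exposure lasted 16 h at 37 °C; actives lower the ATP signal meaning cytotoxicity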
Inconclusive results are not listed. Activity calls are given as the source filed them. The calls were made as follows: active = hit-call score of the fitted dose curve at least 0.9, where 1 is the maximum; inconclusive = response in the unintended direction; inactive = score below 0.9.
reported.property: outcome

{"compound": "O=c1n(Cl)c(=O)n(Cl)c(=O)n1Cl", "result": "inactive"}
{"compound": "CCOP(=O)(OCC)Oc1nc(Cl)c(Cl)cc1Cl", "result": "inactive"}
{"compound": "Cc1c(COC(=O)[C@@H]2[C@H](/C=C(\\Cl)C(F)(F)F)C2(C)C)cccc1-c1ccccc1", "result": "inactive"}
{"compound": "CCCCC(C#N)(Cn1cncn1)c1ccc(Cl)cc1 (configuration not stated)", "result": "inactive"}
{"compound": "Nc1cnn(-c2ccccc2)c(=O)c1Cl", "result": "inactive"}
{"compound": "CN=C=S", "result": "inactive"}
{"compound": "CC(C)NC(=O)N1CC(=O)N(c2cc(Cl)cc(Cl)c2)C1=O", "result": "inactive"}
{"compound": "Cc1cc(C)nc(Nc2ccccc2)n1", "result": "inactive"}
{"compound": "CCNP(=S)(OC)O/C(C)=C/C(=O)OC(C)C (configuration not stated)", "result": "inactive"}
{"compound": "COC(=O)NS(=O)(=O)c1ccc(N)cc1", "result": "inactive"}
{"compound": "C=CCOC(=O)C(C)(C)OC(=O)c1cc(-n2c(=O)cc(C(F)(F)F)n(C)c2=O)ccc1Cl", "result": "inactive"}
{"compound": "CC(C)N1C(=O)c2ccccc2NS1(=O)=O", "result": "inactive"}

----------
Read-out: Interferon-gamma inducible Protein 10 (IP10), CXCL10 (gene 3627)
protocol.text: BSK_BE3C_IP10: BioMAP Diversity Plus: BE3C Assay for Interferon-gamma inducible Protein 10 (IP10) Biomarker Activity (AID 2283034)
assay.context: primary human bronchial epithelial cells; actives raise or lower the signal
Procedure: BSK_BE3C is a cell-based, multiplexed-readout assay that uses bronchial epithelial cell, a human lung primary cell, with measurements taken at 24 hours after chemical dosing in a 96-well plate.BSK_BE3C_IP10 is an assay component measured in the BSK_BE3C assay. It measures IP-10 antibody related to regulation of gene expression using ELISA technology.Data from the assay component BSK_BE3C_IP10 was analyzed into 1 assay endpoint. […]
Calls of active or inactive are those of the source. The calls were made as follows: active = hit-call score of the fitted dose curve at least 0.9, where 1 is the maximum; inactive = score below 0.9.
Outcomes: active, inactive

{"compound": "CSC(=O)c1c(C(F)F)nc(C(F)(F)F)c(C(=O)SC)c1CC(C)C", "classification": "inactive"}
{"compound": "CCCCC(C#N)(Cn1cncn1)c1ccc(Cl)cc1 (configuration not stated)", "classification": "inactive"}
{"compound": "CCC(C)n1c(=O)[nH]c(C)c(Br)c1=O (configuration not stated)", "classification": "inactive"}
{"compound": "Cc1c(COC(=O)[C@@H]2[C@H](/C=C(\\Cl)C(F)(F)F)C2(C)C)cccc1-c1ccccc1", "classification": "inactive"}
{"compound": "CCOc1nc(C(Cl)(Cl)Cl)ns1", "classification": "inactive"}
{"compound": "CCNP(=S)(OC)O/C(C)=C/C(=O)OC(C)C (configuration not stated)", "classification": "inactive"}
{"compound": "CC(C)(C)C(=O)C(Oc1ccc(Cl)cc1)n1cncn1 (configuration not stated)", "classification": "inactive"}
{"compound": "CC(C)Oc1cccc(NC(=O)c2ccccc2C(F)(F)F)c1", "classification": "inactive"}
{"compound": "COC(=O)NC(=S)Nc1ccccc1NC(=S)NC(=O)OC", "classification": "inactive"}
{"compound": "CCOc1nc(F)cc2nc(S(=O)(=O)Nc3c(Cl)cccc3Cl)nn12", "classification": "active"}
{"compound": "CC1(C)C(C(=O)OC(C#N)c2cccc(Oc3ccccc3)c2)C1(C)C (configuration not stated)", "classification": "inactive"}
{"compound": "CCSC(=O)N1CCCCCC1", "classification": "inactive"}
